- Tested on: PCSK9 mRNA
- Assay summary: PCSK9 siRNA screening in HepG2 cells (lipofectamine 2000 transfection, PCSK9 mRNA by Quantigene, normalized to GAP-DH)
- Type: cell-based, human
- Stated conditions: 30 nM siRNA
In the oligonucleotide strings, read from the 5' end, every base follows the letter of its sugar. An asterisk marks phosphorothioate; unmarked linkages are phosphodiester. Other units and linkages are bracketed, terminal groups are in braces. A string of capitals states the bases alone. d = 2'-deoxy (DNA); m = 2'-O-methyl; r = 2'-OH (RNA)
Reported Mean percent remaining mRNA transcript at siRNA concentration/in cell type 30 nM/HepG2 values follow for various substances
# output: bare number, implied unit %

Consider the following illustrative entries.
{"columns": ["Substance", "Assay system", "Unit text", "Measured value"],
 "data": [
  ["AD-9646: PCSK9 siRNA (sense mCmUrGrGmUrGmCmUrArGmCmCmUmUrGmCrGmUmUdT*dT; antisense rArArCrGmCrArArGrGrCmUrArGmCrArCmCrArGdT*dT)", "PCSK9 mRNA", "%", 97],
  ["AD-9623: PCSK9 siRNA (sense rGrUrCrArGrCrUrCrCrArGrGrCrGrGrUrCrCrUdT*dT; antisense rArGrGrArCrCrGrCrCrUrGrGrArGrCrUrGrArCdT*dT)", "PCSK9 mRNA", "%", 66]
]}

QUERY: Quick check: Mean percent remaining mRNA transcript at siRNA concentration/in cell type 30 nM/HepG2 on PCSK9 mRNA, item AD-9637: PCSK9 siRNA (sense rGrArGrGrGrCrArGrGrGrUrCrArUrGrGrUrCrAdT*dT; antisense rUrGrArCrCrArUrGrArCrCrCrUrGrCrCrCrUrCdT*dT) ?
RESULT: 83

QUERY: Okay, and AD-9671: PCSK9 siRNA (sense rArGmUmCrArArGrGrArGmCrAmUrGrGrArAmUmCdT*dT; antisense rGrArUrUrCmCrArUrGrCrUrCrCrUrUrGrArCrUdT*dT) ?
RESULT: 15

QUERY: Okay, and AD-9625: PCSK9 siRNA (sense rCrUrGrGrUrGrGrArGrGrUrGrUrArUrCrUrCrCdT*dT; antisense rGrGrArGrArUrArCrArCrCrUrCrCrArCrCrArGdT*dT) ?
RESULT: 88

QUERY: Okay, and AD-9746: PCSK9 siRNA (sense mCrArGrGrArGmCmCrGrGrGrAmCrGmUmCrArGmCdT*dT; antisense rGrCrUrGrArCrGrUrCrCrCrGrGrCrUrCrCrUrGdT*dT) ?
RESULT: 89

QUERY: Okay, and AD-9651: PCSK9 siRNA (sense rGrGrArGmUmUmUrAmUmUmCrGrGrArArArArGmCdT*dT; antisense rGrCrUrUrUrUrCrCrGrArAmUrArArArCrUrCrCdT*dT) ?
RESULT: 58

QUERY: Okay, and AD-9619: PCSK9 siRNA (sense rUrCrArGrGrArGrCrCrGrGrGrArCrGrUrCrArGdT*dT; antisense rCrUrGrArCrGrUrCrCrCrGrGrCrUrCrCrUrGrAdT*dT) ?
RESULT: 61

QUERY: Okay, and AD-9647: PCSK9 siRNA (sense mCmUmCmCmUrArGrAmCrAmCmCrArGmCrAmUrAmCdT*dT; antisense rGmUrArUrGrCrUrGrGrUrGrUrCmUrArGrGrArGdT*dT) ?
RESULT: 62

QUERY: Okay, and AD-9680: dsRNA targeting the PCSK9 gene at 3530-3548; sense SEQ ID NO:1227, antisense SEQ ID NO:1228 (sense mUmUmCmUrArGrAmCmCmUrGmUmUmUmUrGmCmUmUdT*dT; antisense rArArGmCrArArArAmCrArGrGrUrCmUrArGrArAdT*dT) ?
RESULT: 12

Reference source for all entries: patent US20120016009A1
